Test system: Monochoria vaginalis
Assay: Test Example 12: herbicidal effect test by treatment during growing period in paddy field
Format: in vivo
Details: 120 g/10a; treatment seven days after sowing in flooded paddy pot; assessed 14 days after treatment
readoutKind: Weed suppression rate (%) Monochoria vaginalis

{"molecule": "Cc1cc(F)ccc1N(C(=O)n1cnn(S(=O)(=O)C2CC2)c1=O)C(C)C [Compound 11-211]", "experimentalResult": 80}
{"molecule": "CC(C)N(C(=O)n1cnn(S(=O)(=O)C2CCCCC2)c1=O)c1ccc(F)c(F)c1F [Compound 11-297]", "experimentalResult": 100}
{"molecule": "CC(C)N(C(=O)n1cnn(S(=O)(=O)C2CC2)c1=O)c1ccc(F)cc1 [Compound 11-162]", "experimentalResult": 80}
{"molecule": "O=C(N(CC(F)(F)F)c1ccc(F)cc1F)n1cnn(S(=O)(=O)C2CC2)c1=O [Compound 11-144]", "experimentalResult": 100}
{"molecule": "Cc1cc(F)ccc1N(C(=O)n1cnn(S(=O)(=O)C2CCCCC2)c1=O)C(C)C [Compound 11-307]", "experimentalResult": 60}
{"molecule": "CC(C)N(C(=O)n1cnn(S(=O)(=O)C(C)C)c1=O)c1cccc(F)c1 [Compound 11-50]", "experimentalResult": 80}
{"molecule": "CC(C)N(C(=O)n1cnn(S(=O)(=O)N(C)C)c1=O)c1ccccc1F [Compound 11-1054]", "experimentalResult": 80}
{"molecule": "CC(C)N(C(=O)n1cnn(S(=O)(=O)C(C)C)c1=O)c1c(F)cccc1F [Compound 11-61]", "experimentalResult": 100}
{"molecule": "CC(C)N(C(=O)n1cnn(S(C)(=O)=O)c1=O)c1ccc(F)c(F)c1F [Compound 11-15]", "experimentalResult": 60}
{"molecule": "CC(C)N(C(=O)n1cnn(S(=O)(=O)c2ccc(F)cc2)c1=O)c1c(F)cccc1F [Compound 11-477]", "experimentalResult": 70}
{"molecule": "Cc1cc(C)c(S(=O)(=O)n2ncn(C(=O)N(C)c3ccc(F)cc3F)c2=O)c(C)c1 [Compound 11-1140]", "experimentalResult": 90}
{"molecule": "CC(C)N(C(=O)n1cnn(S(=O)(=O)c2cccs2)c1=O)c1c(F)cc(F)cc1F [Compound 11-1026]", "experimentalResult": 100}
{"molecule": "Cc1ccc(S(=O)(=O)n2ncn(C(=O)N(c3ccc(F)cc3Cl)C(C)C)c2=O)cc1 [Compound 11-644]", "experimentalResult": 80}
{"molecule": "CC(C)N(C(=O)n1cnn(S(C)(=O)=O)c1=O)c1ccc(F)cc1Cl [Compound 11-19]", "experimentalResult": 80}
{"molecule": "CC(C)N(C(=O)n1cnn(S(=O)(=O)c2ccc(F)cc2)c1=O)c1ccccc1F [Compound 11-465]", "experimentalResult": 80}
{"molecule": "CN(C(=O)n1cnn(S(=O)(=O)c2ccc(F)cc2)c1=O)c1ccc(F)cc1F [Compound 11-1137]", "experimentalResult": 80}
{"molecule": "CC(C)N(C(=O)n1cnn(S(C)(=O)=O)c1=O)c1c(F)cc(F)cc1F [Compound 11-16]", "experimentalResult": 100}
{"molecule": "CC(C)N(C(=O)n1cnn(S(=O)(=O)c2cccs2)c1=O)c1ccc(Cl)cc1Br [Compound 11-1034]", "experimentalResult": 70}
{"molecule": "CC(C)N(C(=O)n1cnn(S(=O)(=O)c2ccc(F)cc2)c1=O)c1ccc(F)cc1F [Compound 11-475]", "experimentalResult": 90}
{"molecule": "CC(C)N(C(=O)n1cnn(S(C)(=O)=O)c1=O)c1c(F)c(F)cc(F)c1F [Compound 11-17]", "experimentalResult": 100}
{"molecule": "CC(C)N(C(=O)n1cnn(S(=O)(=O)c2ccc(F)cc2)c1=O)c1ccc(F)c(F)c1F [Compound 11-478]", "experimentalResult": 90}
{"molecule": "CC(C)N(C(=O)n1cnn(S(=O)(=O)c2ccc(F)cc2)c1=O)c1c(F)cc(F)cc1F [Compound 11-479]", "experimentalResult": 80}
{"molecule": "CCS(=O)(=O)n1ncn(C(=O)N(c2cccc(F)c2F)C(C)C)c1=O [Compound 11-1148]", "experimentalResult": 90}
{"molecule": "COc1ccc(S(=O)(=O)n2ncn(C(=O)N(c3cccc(F)c3F)C(C)C)c2=O)cc1 [Compound 11-1149]", "experimentalResult": 100}
{"molecule": "Cc1ccc(N(C(=O)n2cnn(S(=O)(=O)c3cccc(C(F)(F)F)c3)c2=O)C(C)C)c(F)c1 [Compound 11-737]", "experimentalResult": 80}
{"molecule": "CC(C)N(C(=O)n1cnn(S(C)(=O)=O)c1=O)c1c(F)cccc1F [Compound 11-14]", "experimentalResult": 80}
{"molecule": "CCS(=O)(=O)n1ncn(C(=O)N(C)c2ccc(F)cc2F)c1=O [Compound 11-1126]", "experimentalResult": 70}
{"molecule": "CC(C)N(C(=O)n1cnn(S(=O)(=O)c2cccs2)c1=O)c1ccccc1 [Compound 11-1011]", "experimentalResult": 80}
{"molecule": "Cc1ccc(S(=O)(=O)n2ncn(C(=O)N(c3ccc(F)c(F)c3F)C(C)C)c2=O)cc1 [Compound 11-640]", "experimentalResult": 100}
{"molecule": "CC(C)N(C(=O)n1cnn(S(=O)(=O)C2CCCCC2)c1=O)c1ccc(F)cc1Cl [Compound 11-301]", "experimentalResult": 80}
{"molecule": "CC(C)N(C(=O)n1cnn(S(=O)(=O)C2CCCCC2)c1=O)c1c(F)c(F)cc(F)c1F [Compound 11-299]", "experimentalResult": 100}
{"molecule": "Cc1ccc(S(=O)(=O)n2ncn(C(=O)N(c3ccccc3)C(C)C)c2=O)cc1 [Compound 11-626]", "experimentalResult": 80}

* * *

Entries and their Weed suppression rate (%) Echinochloa crus-galli values follow.
Tested on: Echinochloa crus-galli
Assay: Test Example 11: herbicidal effect test by soil treatment in paddy field
Type: in vivo
Conditions: 120 g/10a active ingredient, 14 days after treatment
readoutKind: Weed suppression rate (%) Echinochloa crus-galli

{"entrySmiles": "CC(C)N(C(=O)n1cnn(S(=O)(=O)C(C)C)c1=O)c1ccc(C(F)(F)F)cc1F", "experimentalResult": "100%"}
{"entrySmiles": "CCc1ccc(S(=O)(=O)n2ncn(C(=O)N(CC)CC)c2=O)cc1", "experimentalResult": "80%"}
{"entrySmiles": "CC(C)N(C(=O)n1cnn(S(=O)(=O)C2CCCCC2)c1=O)c1c(F)c(F)cc(F)c1F", "experimentalResult": "100%"}
{"entrySmiles": "Cc1ccc(S(=O)(=O)n2ncn(C(=O)N(c3ccc(Cl)cc3F)C(C)C)c2=O)cc1", "experimentalResult": "100%"}
{"entrySmiles": "CC(C)N(C(=O)n1cnn(S(=O)(=O)c2ccc(Cl)cc2)c1=O)c1ccc(F)c(F)c1F", "experimentalResult": "100%"}
{"entrySmiles": "CCN(CC)C(=O)n1cnn(S(=O)(=O)c2ccccc2)c1=O", "experimentalResult": "100%"}
{"entrySmiles": "Cc1cc(F)ccc1N(C(=O)n1cnn(S(=O)(=O)c2ccccc2F)c1=O)C(C)C", "experimentalResult": "80%"}
{"entrySmiles": "CC(C)N(C(=O)n1cnn(S(=O)(=O)c2ccc(F)cc2)c1=O)c1ccc(Br)cc1Cl", "experimentalResult": "90%"}

* * *

Tested on: Echinochloa crus-galli
Experiment: Test Example 11: herbicidal effect test by soil treatment in paddy field
Type: in vivo
Details: 120 g/10a active ingredient, 14 days after treatment
Entries and their Weed suppression rate (%) Echinochloa crus-galli values follow.
readoutKind: Weed suppression rate (%) Echinochloa crus-galli

{"entrySmiles": "Cc1ccc(S(=O)(=O)n2ncn(C(=O)N(c3ccc(Cl)cc3C)C(C)C)c2=O)cc1", "experimentalResult": 90}
{"entrySmiles": "Cc1ccc(N(C(=O)n2cnn(S(=O)(=O)c3c(F)cccc3F)c2=O)C(C)C)c(F)c1", "experimentalResult": 90}
{"entrySmiles": "Cc1cc(C)c(S(=O)(=O)n2ncn(C(=O)N(c3ccc(F)cc3)C(C)C)c2=O)c(C)c1", "experimentalResult": 100}
{"entrySmiles": "CC(C)N(C(=O)n1cnn(S(=O)(=O)c2ccc(F)cc2)c1=O)c1ccc(F)cc1Cl", "experimentalResult": 90}
{"entrySmiles": "Cc1ccc(S(=O)(=O)n2ncn(C(=O)N(c3ccc(C)cc3F)C(C)C)c2=O)cc1", "experimentalResult": 90}
{"entrySmiles": "CC(C)N(C(=O)n1cnn(S(=O)(=O)c2ccccc2F)c1=O)c1ccccc1F", "experimentalResult": 90}
{"entrySmiles": "Cc1cc(F)ccc1N(C(=O)n1cnn(S(=O)(=O)c2ccccc2Cl)c1=O)C(C)C", "experimentalResult": 60}
{"entrySmiles": "CC(C)N(C(=O)n1cnn(S(=O)(=O)N2CCCCC2)c1=O)c1ccc(F)cc1F", "experimentalResult": 100}
{"entrySmiles": "CC(C)N(C(=O)n1cnn(S(=O)(=O)N(C)C)c1=O)c1ccc(Cl)cc1F", "experimentalResult": 90}
{"entrySmiles": "Cc1ccc(S(=O)(=O)n2ncn(C(=O)N(c3c(F)cccc3F)C(C)C)c2=O)cc1", "experimentalResult": 100}
{"entrySmiles": "CC(C)N(C(=O)n1cnn(S(=O)(=O)c2ccc(C(C)(C)C)cc2)c1=O)c1ccc(Br)cc1Cl", "experimentalResult": 80}
{"entrySmiles": "CC(C)N(C(=O)n1cnn(S(=O)(=O)c2cccc(F)c2)c1=O)c1ccccc1F", "experimentalResult": 90}
{"entrySmiles": "Cc1ccc(S(=O)(=O)n2ncn(C(=O)N(c3ccc(F)cc3F)C(C)C)c2=O)cc1", "experimentalResult": 100}
{"entrySmiles": "CC(C)N(C(=O)n1cnn(S(=O)(=O)c2ccc(C(F)(F)F)cc2)c1=O)c1ccc(F)cc1F", "experimentalResult": 60}
{"entrySmiles": "CC(C)N(C(=O)n1cnn(S(=O)(=O)c2ccccc2)c1=O)c1ccc(Cl)cc1", "experimentalResult": 90}
{"entrySmiles": "Cc1cc(Cl)ccc1N(C(=O)n1cnn(S(=O)(=O)C(C)C)c1=O)C(C)C", "experimentalResult": 90}

Hello, the source for this data is patent US11076595B2, in case you need it.
